The binders listed here are annotated with their Kd.
# TGT: equine FcRn (large alpha subunit p51) / equine beta-2-microglobulin complex, biotinylated (equine) (UniProt P30441)
# EXPERIMENTAL DETAILS: SPR (Biacore), pH 6
MEASUREMENT LABEL: Kd

BINDER	RESULT
equine IgG1 T286E (antibody, part only; not given: variable domains, not shown: another chain or arm of the molecule) constant: ASTTAPKVFALAPGCGTTSDSTVALGCLVSGYFPEPVKVSWNSGSLTSGVHTFPSVLQSSGFYSLSSMVTVPASTWTSETYICNVVHAASNFKVDKRIEPIPDNHQKVCDMSKCPKCPAPELLGGPSVFIFPPNPKDTLMITRTPEVTCVVVDVSQENPDVKFNWYMDGVEVREATTRPKEEQFNSTYRVVSVLRIQHQDWLSGKEFKCKVNNQALPQPIERTITKTKGRSQEPQVYVLAPHPDELSKSKVSVTCLVKDFYPPEINIEWQSNGQPELETKYSTTQAQQDSDGSYFLYSKLSVDRNRWQQGTTFTCGVMHEALHNHYTQKNVSKNPGK	21.9 nM
equine IgG1 T286V (antibody, part only; not given: Variable domains, not shown: another chain or arm of the molecule) constant: ASTTAPKVFALAPGCGTTSDSTVALGCLVSGYFPEPVKVSWNSGSLTSGVHTFPSVLQSSGFYSLSSMVTVPASTWTSETYICNVVHAASNFKVDKRIEPIPDNHQKVCDMSKCPKCPAPELLGGPSVFIFPPNPKDTLMITRTPEVTCVVVDVSQENPDVKFNWYMDGVEVRVATTRPKEEQFNSTYRVVSVLRIQHQDWLSGKEFKCKVNNQALPQPIERTITKTKGRSQEPQVYVLAPHPDELSKSKVSVTCLVKDFYPPEINIEWQSNGQPELETKYSTTQAQQDSDGSYFLYSKLSVDRNRWQQGTTFTCGVMHEALHNHYTQKNVSKNPGK	16.2 nM
equine IgG4 K311L (antibody, part only; not given: Variable domains, not shown: another chain or arm of the molecule) constant: ASTTAPKVFPLASHSAATSGSTVALGCLVSSYFPEPVTVSWNSGALTSGVHTFPSVLQSSGLYSLSSMVTVPASSLKSQTYICNVAHPASSTKVDKKIVIKECNGGCPAECLQVGPSVFIFPPKPKDVLMISRTPTVTCVVVDVGHDFPDVQFNWYVDGVETHTATTEPKQEQFNSTYRVVSVLPIQHLDWLSGKEFKCKVNNKALPAPVERTISKPTGQPREPQVYVLAPHRDELSKNKVSVTCLVKDFYPTDIDIEWKSNGQPEPETKYSTTPAQLDSDGSYFLYSKLTVETNRWQQGTTFTCAVMHEALHNHYTEKSVSKSPGK	28 nM
equine IgG1 D312V (antibody, part only; not given: Variable domains, not shown: another chain or arm of the molecule) constant: ASTTAPKVFALAPGCGTTSDSTVALGCLVSGYFPEPVKVSWNSGSLTSGVHTFPSVLQSSGFYSLSSMVTVPASTWTSETYICNVVHAASNFKVDKRIEPIPDNHQKVCDMSKCPKCPAPELLGGPSVFIFPPNPKDTLMITRTPEVTCVVVDVSQENPDVKFNWYMDGVEVRTATTRPKEEQFNSTYRVVSVLRIQHQVWLSGKEFKCKVNNQALPQPIERTITKTKGRSQEPQVYVLAPHPDELSKSKVSVTCLVKDFYPPEINIEWQSNGQPELETKYSTTQAQQDSDGSYFLYSKLSVDRNRWQQGTTFTCGVMHEALHNHYTQKNVSKNPGK	8.32 nM
